Test system: Pyricularia oryzae
assay remarks: Antifungal activity against Magnaporthe oryzae infected on compound treated rice seedlings at 31.3 ppm incubated for 24 hr in moist chamber followed by incubation for 5 days in greenhouse conditions
Format: functional
What Activity was measured for each of the following?
Please append the unit to your numeric answer.

Lookup: Param readout = Activity; param system = Pyricularia oryzae; param query = `CC(C)OP(=O)(OC(C)C)SCc1ccccc1` ; response: value
Found: 30%

Lookup: Param readout = Activity; param system = Pyricularia oryzae; param query = `CCSC1=NS(=O)(=O)c2ccccc2N1C` ; response: value
Found: 30%

Lookup: Param readout = Activity; param system = Pyricularia oryzae; param query = `CCCCCCC/C(=N/S(=O)(=O)c1ccc(C)cc1)N(CC)CC` ; response: value
Found: 70%

Lookup: Param readout = Activity; param system = Pyricularia oryzae; param query = `CCCCC/C(=N/S(=O)(=O)c1ccc(C)cc1)N(CC)CC` ; response: value
Found: 70%

Lookup: Param readout = Activity; param system = Pyricularia oryzae; param query = `CCCCCC/C(=N/S(=O)(=O)c1ccc(C)cc1)N(CC)CC` ; response: value
Found: 90%
